# test summary: AUC (0 to infinity) in Sprague-Dawley rat at 2.5 mg/kg, po measured during 1 to 24 hrs by LC-MS method
# Assay type: ADME, organism-based, Plasma
# Set-up: dose 2.5 mg/kg, route oral, time infinity
# cond: Sprague-Dawley, plasma
measured quantity: AUC(0-inf) (ng·h/mL)
Numbers only, in ng·h/mL.

The recorded AUC(0-inf) for entry Cc1cc2c(c(C)c1Br)C=C(C(=O)O)C(C(F)(F)F)O2 (stereo unspecified) equals 12500

----------
# Tested on: Rattus norvegicus
# test summary: Half life in Sprague-Dawley rat at 5 mg/kg, iv measured during 1 to 24 hrs by LC-MS method
# Format: ADME, organism-based
# Parameters: dose 5 mg/kg, route intravenous
# cond: in vivo
measured quantity: t1/2 (h)
Answers are plain numbers, in h.

compound="[2H]C([2H])([2H])c1cc2c(c(C([2H])([2H])[2H])c1Br)C=C(C(=O)O)C(C(F)(F)F)O2 (stereo not given)" tested_on="Rattus norvegicus" measured_quantity=t1/2 measurement_units=h numeric_value=2.733

Please report t1/2 for every entry that follows.
1. CCc1cc(OC(F)(F)F)cc2c1OC(C(F)(F)F)C(C(=O)O)=C2 (stereo not given)
2. [2H]C([2H])([2H])c1cc(Br)cc2c1OC(C(F)(F)F)C(C(=O)O)=C2 (stereo not given)
3. [2H]C([2H])([2H])c1cc2c(c(C([2H])([2H])[2H])c1Cl)C=C(C(=O)O)C(C(F)(F)F)O2 (stereo not given)
4. CC(C)(C)c1cc2c(cc1Cl)C=C(C(=O)O)[C@@H](C(F)(F)F)O2

[reply]
1. 5.446
2. 4.186
3. 2.525
4. 5.78
